- experiment-notes: HT1080 cell viability loss – fluorescence readout (AID 620);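 note: cells exposed to compound overnight then 4 h with Alamar Blue; 0% = vehicle DMSO and 100% = killing control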
- experimental-context: at 10 µM
Hit rate of the full screen: of about 87,000 compounds, about 360 (0.41%) were called active. Cut-off read from the data, not from the text of the source: active = cytotoxicity above about 50%; inactive = the rest. Only a selection was taken, and actives are over-represented in it overall.
Outcome codes: Yes for active, No for inactive

# molecule, label-class
records = [
    ("Nc1ccc2c(c1)C(=O)C(=O)c1ccccc1-2", "Yes"),
    ("CCN(CC)c1ccc(C(=S)N2CCN(c3ccccc3)CC2)cc1", "No"),
    ("CCN(CC)S(=O)(=O)c1cccc(C(=O)Nc2ccc(Cl)cn2)c1", "No"),
    ("Cn1c(=O)c2c(nc(Br)n2CC(=O)c2cccs2)n(C)c1=O", "No"),
    ("CCCC(=O)c1c(NC(C)C)cc(C)oc1=O", "No"),
    ("O=C1C2CC=C(Cl)CC2C(=O)N1c1ncn[nH]1 (centres undefined)", "No"),
    ("CC1=C(C)/C(=N/OC(=O)c2cccc([N+](=O)[O-])c2)C=CC1=O", "No"),
    ("Cc1ccc(S(=O)(=O)O/N=C2\\CCCc3ccccc32)cc1", "No"),
    ("CCOC(=O)CNC(=O)C(Cc1ccccc1)NS(=O)(=O)c1ccc2c(c1)CCC(=O)N2 (centres undefined)", "No"),
    ("Cc1cc(C)cc(OC(=O)N2CCOCC2)c1", "No"),
    ("CC1=C(C)/C(=N\\OS(=O)(=O)c2ccccc2)C=CC1=O", "Yes"),
    ("COc1ccccc1CNC(=O)C(=O)NCC1CCCO1 (centres undefined)", "No"),
    ("O=C(O)C1CC=CCC1C(=O)N1CCc2ccccc21 (centres undefined)", "No"),
    ("CCCCS(=O)(=O)c1sc2nc(C)cc(C)c2c1N", "No"),
    ("CCOC(=O)CSc1nc2c(c(=O)[nH]c(=O)n2C)n1C/C=C(/C)Cl", "No"),
    ("Nc1ccc(Br)c2c1C(=O)c1ccccc1C2=O", "No"),
    ("CSCC[C@H](Nc1ncnc2sc(C)c(C)c12)C(=O)O", "No"),
    ("COC(=O)CSc1nnc(CNS(=O)(=O)c2ccc(C)cc2)n1C", "No"),
    ("CCc1nnc(NC(=O)Cn2nc(-c3ccccc3OC)ccc2=O)s1", "No"),
]

----------
- experiment-notes: HT1080 cell viability loss – fluorescence readout (AID 620);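 note: cells exposed to compound overnight then 4 h with Alamar Blue; 0% = vehicle DMSO and 100% = killing control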
- experimental-context: at 10 µM
The whole screen tested about 87,000 compounds, of which about 360 (0.41%) were called active. No stated cut-off is given here; in the data, active means cytotoxicity above about 50%; inactive means the rest. What follows is part of a selection rich in actives, with near analogues and random picks from the rest.
Outcome codes: yes (1) = active, no (0) = inactive

# molecule, label-class
measured = [
    ("COc1ccc(NS(=O)(=O)c2cc(C)ccc2NC(=O)c2cc(C)oc2C)cc1", "yes (1)"),
    ("CCOC(=O)c1ccccc1Nc1cn(C(C)=O)c2ccccc12", "yes (1)"),
    ("CCOC(=O)CSC1=C(C#N)C(c2ccc(C)s2)CC(=O)N1 (stereo not given)", "yes (1)"),
    ("Cc1[nH]nc(SCC(=O)N2CCC(C)CC2)c1[N+](=O)[O-]", "no (0)"),
    ("COc1ccc(N2CC(O)=C(c3nc4ccccc4s3)C2=N)c(OC)c1", "no (0)"),
    ("O=C(COc1ncnc2ccccc12)NC1CCS(=O)(=O)C1 (stereo not given)", "no (0)"),
    ("COc1cc(CNc2ccc(C)c(C)c2)cc(OC)c1OC", "yes (1)"),
    ("O=C(N1CCN(CCO)CC1)N1c2ccccc2C=Cc2ccccc21", "no (0)"),
    ("CCOC(=O)CSC1=C(C#N)C(c2ccccc2OC)CC(=O)N1 (stereo not given)", "no (0)"),
    ("COc1ccc2nc(NC(=O)c3cc(C)oc3C)sc2c1", "no (0)"),
]

----------
- experiment-notes: HT1080 cell viability loss – fluorescence readout (AID 620);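 note: cells exposed to compound overnight then 4 h with Alamar Blue; 0% = vehicle DMSO and 100% = killing control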
- experimental-context: at 10 µM
The campaign covered roughly 87,000 compounds. About 360 (0.41%) were called active. Rule as the data show it: active = cytotoxicity above about 50%; inactive = the rest. This excerpt belongs to a sample that is enriched for actives.
Outcome codes: active, inactive

# molecule, label-class
records = [
    ("O=c1cc(N2CCN(Cc3ccccc3)CC2)[nH]c(=O)n1-c1cccc(C(F)(F)F)c1", "inactive"),
    ("Cc1cc(C(=O)NCCN2CCN(c3cccc(Cl)c3)CC2)n(-c2ccccc2)n1", "active"),
    ("CCCn1c(=N)c(C(=O)NC2CCCC2)cc2c(=O)n3cccc(C)c3nc21", "inactive"),
    ("Cc1ccc(-n2c(SCC(=O)OC(C)C)nnc2-c2cnccn2)cc1", "inactive"),
    ("CN1C(=O)CC(Sc2ncccc2C(=O)O)C1=O (stereo not drawn)", "inactive"),
    ("O=C1CC(c2cccs2)c2cc3c(cc2N1)OCO3 (stereo not drawn)", "inactive"),
    ("CN(C)CC(C(=O)c1ccccc1)c1ccccc1 (stereo not drawn)", "active"),
    ("COc1ccc(CC(=O)N2CCCc3ccccc32)cc1", "inactive"),
    ("O=C(CN(C(=O)Cn1nnc(-c2cccs2)n1)c1ccc2c(c1)OCCO2)NCC1CCCO1 (stereo not drawn)", "inactive"),
    ("COc1ccccc1C1CC(=O)Nc2cc3c(cc21)OCCO3 (stereo not drawn)", "active"),
    ("COc1cccc(C2CC(=O)Nc3cc4c(cc32)OCCO4)c1OC(C)C (stereo not drawn)", "inactive"),
    ("COc1ccc(-c2cc(C(F)(F)F)n3nc(C)cc3n2)cc1", "inactive"),
    ("Cc1oc2c(c1C(=O)Nc1cccc(C(=O)O)c1)CCCC2", "inactive"),
    ("CCCCNC(=O)c1cc2c(=O)n3cccc(C)c3nc2n(Cc2ccncc2)c1=N", "active"),
    ("N=c1c(C(=O)NC2CCCC2)cc2c(=O)n3ccccc3nc2n1C1CCCC1", "inactive"),
    ("O=C(NCc1ccco1)C1CCC(CNS(=O)(=O)c2cccc3cccnc23)CC1 (stereo not drawn)", "inactive"),
    ("CCC(C(=O)c1ccc(O)cc1)c1ccccc1 (stereo not drawn)", "inactive"),
    ("CCCCS(=O)(=O)/C=C\\C=C/S(=O)(=O)CCCC", "active"),
]

----------
- experiment-notes: HT1080 cell viability loss – fluorescence readout (AID 620);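 note: cells exposed to compound overnight then 4 h with Alamar Blue; 0% = vehicle DMSO and 100% = killing control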
- experimental-context: at 10 µM
The campaign covered roughly 87,000 compounds. About 360 (0.41%) were called active. Rule as the data show it: active = cytotoxicity above about 50%; inactive = the rest. The entries come from a sample that favours actives as a whole.
Outcome codes: 1 for active, -1 for inactive

# compound, label-class
data = [
    ("CCOc1ccc(NC(=O)c2cnccn2)cc1", -1),
    ("CCN(CC)S(=O)(=O)c1ccc(Br)c(OC)c1", -1),
    ("Cc1ccsc1C1NC(=O)c2c(sc3c2CCN(C)C3)N1 (configuration not stated)", -1),
    ("CC[Si](CC)(CC)c1c2c(nc3ccc(OC)cc13)-c1cccc(=O)n1C2", -1),
    ("Cc1ccc(Oc2cc(-n3nc(C)cc3C)ncn2)cc1", -1),
    ("CC(/C=N/NC(=O)c1ccc(Br)cc1)=C\\c1ccccc1", -1),
    ("N=c1n(CCN2CCOCC2)c2ccccc2n1CC(=O)c1ccc(Cl)c(Cl)c1", 1),
    ("Cc1nnc(N2C(=O)C(O)=C(C(=O)c3ccco3)C2c2ccc(C(C)C)cc2)s1 (configuration not stated)", -1),
    ("O=C(CN1CCCC1)N1c2ccccc2Sc2ccc(C(F)(F)F)cc21", -1),
    ("CCOc1ccccc1-c1nc(-c2cc3ccccc3nc2OC)no1", -1),
    ("COc1ccc(OC)c(NS(=O)(=O)c2ccc(N3CCCC3=O)cc2)c1", 1),
    ("CC(=O)c1ccc(Oc2cc(C)nc(NCc3ccccc3)n2)cc1", -1),
    ("Fc1ccc(Br)cc1C1C=C(c2ccc(Br)s2)Nc2ncnn21 (configuration not stated)", 1),
    ("Cc1ccc2c(c1)c(=O)c1c3n2CCN(C(=O)CCl)C3CC1 (configuration not stated)", 1),
    ("COc1ccc(CCNS(=O)(=O)c2ccc(N3CCCC3=O)cc2)cc1", -1),
    ("CN(C)CCCN1c2ccccc2Sc2ccc(C(F)(F)F)cc21", 1),
    ("COc1ccc(Nc2nc(C)cc(C)c2C(N)=O)cc1", -1),
    ("OCCN1CCN(CCCN2c3ccccc3Sc3ccc(C(F)(F)F)cc32)CC1", 1),
    ("CS(=O)(=O)N(CC(=O)N1CCN(c2ccccc2)CC1)C1CCCCC1", -1),
    ("Cc1ccccc1NCC(=O)N/N=C/C(Br)=C/c1ccccc1", -1),
    ("N=c1n(CCOc2ccccc2)c2ccccc2n1CCN1CCOCC1", -1),
    ("C=CS(=O)(=O)c1ccc(Oc2ccc(S(=O)(=O)C=C)cc2)cc1", 1),
    ("COc1ccc([C@@H]2Sc3ccccc3N(CCN(C)C)C(=O)[C@@H]2OC(C)=O)cc1", -1),
    ("CC(/C=N/NC(=O)c1n[nH]c2c1CCC2)=C\\c1ccccc1", 1),
    ("COCCn1nnnc1CN(Cc1ccco1)Cc1cc2cc3c(cc2[nH]c1=O)OCO3", -1),
    ("Cc1ccccc1NS(=O)(=O)c1ccc(N2CCCC2=O)cc1", 1),
    ("CNc1nc(-c2ccccn2)nnc1-c1ccccc1", -1),
    ("COC(=O)c1ccc(Oc2cc(C)nc(SC)n2)cc1", -1),
    ("Cc1ccc(Nc2nc(N3CCOCC3)c3ccccc3n2)cc1", -1),
    ("CCN1CCN(C(=O)Cn2ncc3ccsc3c2=O)CC1", -1),
    ("COC(=O)c1ccc(Oc2cc(C)nc(-n3nc(C)cc3C)n2)cc1", 1),
    ("NS(=O)(=O)c1ccc(CCNc2nc(CN3CCCCC3)nc3sc4c(c23)CCC4)cc1", -1),
]

Origin of measurements: PubChem BioAssay AID620
